From: paper PMC3021526

- target system: T1, MUC1 15 aa peptide with cysteine (APDTRPAPGSTAPPA-C) (Homo sapiens (synthetic peptide))
- T1 construct: 15 residues of the tandem repeat (VNTR) of human MUC1; added C-terminal cysteine, used for coupling to the chip; also called MUC1 peptide; MUC1 peptide antigen
- T1 chain: APDTRPAPGSTAPPAC
- test: SPR; Biacore 2000; about 50 RU MUC1 15 aa peptide with cysteine coupled on a CM5 chip (NHS/EDC, PDEA); serial dilutions of scFv (0-400 nM) at 50 µL/min; 1:1 Langmuir separate fitting; IIB6 by steady-state model
- measurement setup: both partners purified
Attribute: kon
recorded metric: kon (M⁻¹ s⁻¹)

- affinity matured anti-MUC1 scFv HT186-B7 (scFv, V domains shown, From IIB6 by error-prone PCR (library A), off-rate panning; source: E. coli, IMAC purified; also culture supernatant from microtitre plates; not shown: c-myc, C-terminal, kept) VH: QMQLVQSGAEVKKPGASVKVSCKASGYTFTGHYMHWVRQAPGQGLEWMGWIDPVTGGTKYAQNFQGWVTMTRDTSIRTAYMELSRLRSDDTAMYYCAREVTGDRGQFDKWGQGTLVTVAS VL: QSVLTQPPSVSVAPGKTARITCGGNNIGSKSVHWYQQKPGQAPALVIYYGSYRPSGIPERFSGSNYGNTATLTIRRVEAGDEADYYCQVWDSSSDWVFGGGTKLTVL: 35000
- affinity matured anti-MUC1 scFv HT186-D11 (scFv, V domains shown, From IIB6 by error-prone PCR (library A), off-rate panning; source: E. coli, IMAC purified; also culture supernatant from microtitre plates; not shown: c-myc, C-terminal, kept) VH: QMQLVQSEAELKKPGASVKVSCKASGYSFTGHYMHWVRQAPGQGLEWMGWIDPVTGGTKYAQNFQGWVTMTRDTSIRTAYLELSRLRSDDTAMYYCAREVTGDRGQFDKWGQGTLVTVAS VL: QSVLTQPPSVSVAPGKTARITCGGNNIGSKSVHWYQQKPGQAPALVIYYGSNRPSGIPERFSGSNSGNTATLTISRVEAGDEADYYCQVWDSSSDWVFGGGTKLTVL: 38000
- affinity matured anti-MUC1 scFv HT200-3A-C1 (scFv, V domains shown, one potential N-glycosylation site in CDR2; From IIB6 by nested error-prone PCR (library B), panning in solution; source: E. coli, IMAC purified; also culture supernatant from microtitre plates; not shown: c-myc, C-terminal, kept) VH: QMQLVQSGAEVKKPGASVKVSCKASGYTFTGHYMHWVRQAPGQGLEWMGWIDPVTGGTKYAQNFQGWVTMTRDTSIRTAYMELSRLRSDDTAMYYCAREVTGDRGQFDKWGQGTLVTVAS VL: QSVLTQPPSVSMAPGETARITCGGNNIGSKSVHWYQQKPGQAPVLVIYNDSDRPSGIPERFSGSNSGKTATLTISRVEAGDEADYYCQVWDSSIDWVFGGGTKLTVL: 49000
